Exercise: state measured melting point for each of the compounds provided.
Your answer is read as °C, so omit the unit and give the number.

The measured melting point associated with Cc1ccc(S(=O)(=O)Nc2ccc(Cl)cc2C(=O)Nc2ccc(S(=O)(=O)N3CCOCC3)cc2)cc1 [Example 57] reads 214

Lab note: measured melting point of O=C(Nc1ccc(S(=O)(=O)N2CCSCC2)cc1)c1cc(Cl)ccc1NS(=O)(=O)c1ccc(Cl)cc1 [Example 15] was 246

response.value for O=C(Nc1ccc(S(=O)(=O)N2CCS(=O)(=O)CC2)cc1)c1cc(Cl)ccc1NS(=O)(=O)c1ccc(Cl)cc1 [Example 92] (field: melting point) = 182

Looking up COc1cc(NS(=O)(=O)c2ccc(Cl)s2)c(C(=O)Nc2ccc(S(=O)(=O)N(C)Cc3cccnc3)cc2)cc1OC.Cl , I found its melting point recorded as 214
